Values were extracted from patent US4988686A.

Tested on: Escherichia coli No. 29
property-measured: MIC (µg/mL)

Solved cases (3 shown):
# compound, MIC / µg/mL
measured = [
    ("CC(C)(O/N=C(\\C(=O)N[C@@H]1C(=O)N2C(C(=O)O)=C(/C=C/c3cc(=O)c(O)cn3O)CS[C@H]12)c1csc(N)n1)C(=O)O", 0.1),
    ("CC(C)(O/N=C(\\C(=O)N[C@@H]1C(=O)N2C(C(=O)[O-])=C(C[n+]3ccccc3)CS[C@H]12)c1csc(N)n1)C(=O)O [Ceftazidime, reference compound]", 0.2),
    ("CO/N=C(\\C(=O)N[C@@H]1C(=O)N2C(C(=O)O)=C(/C=C/c3cc(=O)c(O)cn3C)CS[C@H]12)c1csc(N)n1", 0.05),
]

[A] Cn1cc(O)c(=O)cc1/C=C/C1=C(C(=O)O)N2C(=O)[C@@H](NC(=O)/C(=N\OC(C)(C)C(=O)O)c3csc(N)n3)[C@H]2SC1
[B] CO/N=C(\C(=O)N[C@@H]1C(=O)N2C(C(=O)O)=C(/C=C\c3cc(=O)c(O)cn3OC)CS[C@H]12)c1csc(N)n1
For this pair, A and B , which shows a numerically higher MIC? State your choice using its label.
B
(B: 0.2 µg/mL, A: 0.1 µg/mL)

----------
Tested on: Pseudomonas aeruginosa E-2
assay-text: agar-dilution method, minimum inhibitory concentration
Format: cell-based
assay-context: E2; Pseudomonas aeruginosa E-2; agar-dilution method; read-out: Minimum Inhibitory Concentration
property-measured: MIC (mg/L)

Solved cases (3 shown):
# chem-smiles, property-measured, recorded-value
rows = [
    ("CO/N=C(\\C(=O)N[C@@H]1C(=O)N2C(C(=O)O)=C(/C=C/c3cc(=O)c(O)cn3C)CS[C@H]12)c1csc(N)n1", "MIC", 1.56),
    ("Cn1cc(O)c(=O)cc1/C=C/C1=C(C(=O)O)N2C(=O)[C@@H](NC(=O)/C(=N\\OC(C)(C)C(=O)O)c3csc(N)n3)[C@H]2SC1", "MIC", 0.05),
    ("CC(C)(O/N=C(\\C(=O)N[C@@H]1C(=O)N2C(C(=O)O)=C(/C=C/c3cc(=O)c(O)cn3Cc3ccncc3)CS[C@H]12)c1csc(N)n1)C(=O)O", "MIC", 0.05),
]

[P] CO/N=C(\C(=O)N[C@@H]1C(=O)N2C(C(=O)O)=C(/C=C\c3cc(=O)c(O)cn3OC)CS[C@H]12)c1csc(N)n1
[Q] CO/N=C(\C(=O)N[C@@H]1C(=O)N2C(C(=O)O)=C(/C=C/c3cc(=O)c(O)cn3O)CS[C@H]12)c1csc(N)n1
For this pair, P and Q , which shows a numerically higher MIC? State your choice using its label.
P

----------
Test system: Proteus vulgaris 76
assay-text: agar-dilution method, minimum inhibitory concentration
Type: cell-based
assay-context: Proteus vulgaris 76; agar-dilution method; read-out: Minimum Inhibitory Concentration
property-measured: MIC

Solved cases (5 shown):
# compound, MIC
measured = [
    ("CO/N=C(\\C(=O)N[C@@H]1C(=O)N2C(C(=O)O)=C(/C=C/c3cc(=O)c(O)cn3C)CS[C@H]12)c1csc(N)n1 [Example 7]", "≤ 0.025 µg/mL"),
    ("CO/N=C(\\C(=O)N[C@@H]1C(=O)N2C(C(=O)O)=C(/C=C/c3cc(=O)c(O)cn3O)CS[C@H]12)c1csc(N)n1 [Example 2]", "≤ 0.025 µg/mL"),
    ("CC(C)(O/N=C(\\C(=O)N[C@@H]1C(=O)N2C(C(=O)O)=C(/C=C/c3cc(=O)c(O)cn3Cc3ccncc3)CS[C@H]12)c1csc(N)n1)C(=O)O [Example 21]", "0.05 µg/mL"),
    ("Cn1cc(O)c(=O)cc1/C=C/C1=C(C(=O)O)N2C(=O)[C@@H](NC(=O)/C(=N\\OC(C)(C)C(=O)O)c3csc(N)n3)[C@H]2SC1 [Example 12]", "≤ 0.025 µg/mL"),
    ("CO/N=C(\\C(=O)N[C@@H]1C(=O)N2C(C(=O)O)=C(/C=C\\c3cc(=O)c(O)cn3OC)CS[C@H]12)c1csc(N)n1 [Example 10]", "0.1 µg/mL"),
]

Attention now turns to another entry.
Which MIC value is on record for CC(C)(O/N=C(\C(=O)N[C@@H]1C(=O)N2C(C(=O)O)=C(/C=C/c3cc(=O)c(O)cn3O)CS[C@H]12)c1csc(N)n1)C(=O)O [Example 5] ?
≤ 0.025 µg/mL

----------
System: Pseudomonas aeruginosa M-0148
assay-text: agar-dilution method, minimum inhibitory concentration
Assay type: cell-based
assay-context: M0148; Pseudomonas aeruginosa M-0148; agar-dilution method; read-out: Minimum Inhibitory Concentration
Excerpt: In order to illustrate the utility of the objective compound (I), anti-bacterial activities measured by the agar-dilution method for some of these compounds (I) are shown in table 1.
property-measured: MIC (µg/mL)

[a] CO/N=C(\C(=O)N[C@@H]1C(=O)N2C(C(=O)O)=C(/C=C\c3cc(=O)c(O)cn3OC)CS[C@H]12)c1csc(N)n1 [Example 10]
[b] CC(C)(O/N=C(\C(=O)N[C@@H]1C(=O)N2C(C(=O)O)=C(/C=C/c3cc(=O)c(O)cn3Cc3ccncc3)CS[C@H]12)c1csc(N)n1)C(=O)O [Example 21]
Lab note: check whether a or b has the lower measured MIC. State your choice using its label.
b

[P] CO/N=C(\C(=O)N[C@@H]1C(=O)N2C(C(=O)O)=C(/C=C/c3cc(=O)c(O)cn3O)CS[C@H]12)c1csc(N)n1 [Example 2]
[Q] CO/N=C(\C(=O)N[C@@H]1C(=O)N2C(C(=O)O)=C(/C=C/c3cc(=O)c(O)cn3C)CS[C@H]12)c1csc(N)n1 [Example 7]
For this pair, P and Q , which shows a numerically higher MIC? State your choice using its label.
Q
(Q: 12.5 µg/mL, P: 0.2 µg/mL)
